# TESTED_TARGET: human FOXO1 (constitutively active form Thr24Ala, Ser256Ala, Ser319Ala) (Homo sapiens, UniProt Q12778, S256A/S319A/T24A)
# Sequence (Q12778 whole entry T24A/S256A/S319A): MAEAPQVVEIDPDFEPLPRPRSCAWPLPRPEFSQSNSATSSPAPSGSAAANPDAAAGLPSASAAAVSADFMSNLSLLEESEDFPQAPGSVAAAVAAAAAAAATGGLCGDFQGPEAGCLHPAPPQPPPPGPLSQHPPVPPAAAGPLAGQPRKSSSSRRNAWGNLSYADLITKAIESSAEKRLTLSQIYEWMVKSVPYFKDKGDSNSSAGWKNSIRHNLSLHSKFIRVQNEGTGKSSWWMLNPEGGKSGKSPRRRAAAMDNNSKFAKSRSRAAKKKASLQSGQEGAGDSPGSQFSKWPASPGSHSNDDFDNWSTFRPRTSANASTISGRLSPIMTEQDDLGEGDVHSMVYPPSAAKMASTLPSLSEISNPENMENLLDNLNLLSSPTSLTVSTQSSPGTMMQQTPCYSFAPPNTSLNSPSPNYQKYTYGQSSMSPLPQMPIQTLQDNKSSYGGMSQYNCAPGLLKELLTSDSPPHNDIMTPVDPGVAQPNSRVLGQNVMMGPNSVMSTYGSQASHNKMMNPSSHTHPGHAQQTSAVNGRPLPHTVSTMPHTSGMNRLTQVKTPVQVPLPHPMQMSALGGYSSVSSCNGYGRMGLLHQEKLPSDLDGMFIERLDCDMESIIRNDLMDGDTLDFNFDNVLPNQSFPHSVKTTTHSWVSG
# ASSAY_DETAILS: FOXO1 inhibitor activity assay: cell-based transcriptional (luciferase) reporter assay in HEK293 cells
# ASSAY_CONDITIONS: HEK293 cells transfected with insulin response element firefly luciferase reporter, FOXO1 and Renilla luciferase; 10-point dose response 50 μM to 2.5 nM; 24 hours
pIC50: −log10 of the molar value.
pIC50 overview
ENDPOINT_NAME: pIC50

INSERT INTO results (molecule, endpoint_name, measured) VALUES
  ('Cn1nc(NC(=O)c2ccc(N3CCN(C4COC4)CC3)cc2)cc1-c1nc2ccccc2[nH]1', 'pIC50', '6.52 to 7.00'),
  ('CN1CCN(c2ccc(C(=O)Nc3cc(-c4nc5ccccc5[nH]4)[nH]n3)nn2)CC1', 'pIC50', '< 6.00'),
  ('O=C(Nc1cc(-c2nc3ccccc3[nH]2)[nH]n1)c1ccc(N2CCC(N3CCOCC3)CC2)nc1', 'pIC50', '> 7.00'),
  ('Cn1nc(NC(=O)c2ccc(N3CCNC4(CC4)C3)nc2)cc1-c1nc2ccccc2[nH]1', 'pIC50', '> 7.00'),
  ('Cn1nc(NC(=O)c2ccc(N3CCN4CCCC4C3)nc2)cc1-c1nc2ccccc2[nH]1 (stereo not shown)', 'pIC50', '> 7.00'),
  ('COCCN1CCN(c2ccc(C(=O)Nc3cc(-c4nc5ccccc5[nH]4)[nH]n3)cc2)CC1', 'pIC50', '> 7.00'),
  ('COCCOc1ccc2[nH]c(-c3cc(NC(=O)c4ccc(OC)c(Cl)c4)n[nH]3)nc2c1', 'pIC50', '> 7.00');

====

# TESTED_TARGET: human FOXO1 (constitutively active form Thr24Ala, Ser256Ala, Ser319Ala) (Homo sapiens, UniProt Q12778, S256A/S319A/T24A)
# ASSAY_DETAILS: FOXO1 inhibitor activity assay: cell-based transcriptional (luciferase) reporter assay in HEK293 cells
# ASSAY_CONDITIONS: HEK293 cells transfected with insulin response element firefly luciferase reporter, FOXO1 and Renilla luciferase; 10-point dose response 50 μM to 2.5 nM; 24 hours
pIC50: −log10 of the molar value.
ENDPOINT_NAME: pIC50

INSERT INTO measurements (compound, measured) VALUES
  ('COc1ccc(C(=O)Nc2nc(-c3nc4ccccc4[nH]3)n(C)n2)cc1Cl [Compound A-234]', '6.00 to 6.52'),
  ('CN1CCN(c2ccc(C(=O)Nc3cc(-c4nc5ccccc5[nH]4)[nH]n3)cn2)CC1 [Compound A-21]', '> 7.00'),
  ('Cn1nc(NC(=O)c2ccc(N3CCO[C@@H](CO)C3)nc2)cc1-c1nc2ccccc2[nH]1 [Compound A-248]', '> 7.00'),
  ('COc1cc(F)c2[nH]c(-c3cc(NC(=O)c4ccc(N5CC(OC)C5)nc4)n[nH]3)nc2c1 [Compound A-188]', '< 6.00'),
  ('O=C(Nc1cc(-c2nc3cccc(F)c3[nH]2)[nH]n1)c1ccc(OCCO)c(Cl)c1 [Compound A-119]', '6.52 to 7.00'),
  ('Cn1nc(NC(=O)c2ccc(N3CCN(CCO)CC3)nc2)cc1-c1nc2cccc(F)c2[nH]1 [Compound A-158]', '6.52 to 7.00'),
  ('COCCOc1ccc(C(=O)Nc2cc(-c3nc4ccccc4[nH]3)[nH]n2)cc1Cl [Compound A-29]', '> 7.00'),
  ('COc1ccc(C(=O)Nc2cc(-c3cn4ccccc4n3)[nH]n2)cc1Cl [Compound A-112]', '6.00 to 6.52');
